Cited source for all entries: patent US20070015723A1

test system: HIV-1IIIB; assay: Acute HIV infection assay (XTT, CEM cells); conditions: inhibition of HIV
pIC50: −log10 of the molar value. Strand notation (5' to 3'): a small letter for the sugar, then the base; units joined by * are phosphorothioate-linked, units joined directly phosphodiester-linked; [ ] holds rarer units or linkages, { } end groups; capitals alone tell only the bases. d = 2'-deoxy (DNA)
Entries and their measured pIC50 follow.
readoutKind: pIC50

substance | resultComparator | measValue
ISIS 4717: GG GGT TGG GG, P = S, SEQ ID NO 26 (GGGGTTGGGG; all phosphorothioate, sugars by position not given here) | = | 6.39
ISIS 4560: GGGG C GGGG C GGGG C GGGG C G, P = S, SEQ ID NO 42 (dG*dG*dG*dG*dC*dG*dG*dG*dG*dC*dG*dG*dG*dG*dC*dG*dG*dG*dG*dC*dG) | = | 6.85
ISIS 5668: TT GGGG TT GGGG, P = O, SEQ ID NO 57 (TTGGGGTTGGGG; all phosphodiester, sugars by position not given here) | < | 4.68
ISIS 5667: TT GGGG TT GGGG TT, P = O, SEQ ID NO 56 (TTGGGGTTGGGGTT; all phosphodiester, sugars by position not given here) | < | 4.66
ISIS 5590: GGGG TT GGGG, P = O, SEQ ID NO 46 (GGGGTTGGGG; all phosphodiester, sugars by position not given here) | < | 4.60
ISIS 5675: TT GGGG TT GGGG TT, P = S, SEQ ID NO 40 (TTGGGGTTGGGGTT; all phosphorothioate, sugars by position not given here) | = | 6.42
ISIS 4873: CAT GAC CGG GGC, P = S, SEQ ID NO 4 (CATGACCGGGGC; all phosphorothioate, sugars by position and methylation of C not given here) | = | 6.00
